biological target: Transient receptor potential cation channel subfamily A member 1 (Rattus norvegicus, UniProt Q6RI86); assay: Antagonist activity against rat recombinant TRPA1 expressed in HEK293 cells assessed as inhibition of AITC-induced Ca2+ influx pre-treated 5 mins before capsaicin addition by Fluo-4 dye based assay
Sequence (Q6RI86 whole entry): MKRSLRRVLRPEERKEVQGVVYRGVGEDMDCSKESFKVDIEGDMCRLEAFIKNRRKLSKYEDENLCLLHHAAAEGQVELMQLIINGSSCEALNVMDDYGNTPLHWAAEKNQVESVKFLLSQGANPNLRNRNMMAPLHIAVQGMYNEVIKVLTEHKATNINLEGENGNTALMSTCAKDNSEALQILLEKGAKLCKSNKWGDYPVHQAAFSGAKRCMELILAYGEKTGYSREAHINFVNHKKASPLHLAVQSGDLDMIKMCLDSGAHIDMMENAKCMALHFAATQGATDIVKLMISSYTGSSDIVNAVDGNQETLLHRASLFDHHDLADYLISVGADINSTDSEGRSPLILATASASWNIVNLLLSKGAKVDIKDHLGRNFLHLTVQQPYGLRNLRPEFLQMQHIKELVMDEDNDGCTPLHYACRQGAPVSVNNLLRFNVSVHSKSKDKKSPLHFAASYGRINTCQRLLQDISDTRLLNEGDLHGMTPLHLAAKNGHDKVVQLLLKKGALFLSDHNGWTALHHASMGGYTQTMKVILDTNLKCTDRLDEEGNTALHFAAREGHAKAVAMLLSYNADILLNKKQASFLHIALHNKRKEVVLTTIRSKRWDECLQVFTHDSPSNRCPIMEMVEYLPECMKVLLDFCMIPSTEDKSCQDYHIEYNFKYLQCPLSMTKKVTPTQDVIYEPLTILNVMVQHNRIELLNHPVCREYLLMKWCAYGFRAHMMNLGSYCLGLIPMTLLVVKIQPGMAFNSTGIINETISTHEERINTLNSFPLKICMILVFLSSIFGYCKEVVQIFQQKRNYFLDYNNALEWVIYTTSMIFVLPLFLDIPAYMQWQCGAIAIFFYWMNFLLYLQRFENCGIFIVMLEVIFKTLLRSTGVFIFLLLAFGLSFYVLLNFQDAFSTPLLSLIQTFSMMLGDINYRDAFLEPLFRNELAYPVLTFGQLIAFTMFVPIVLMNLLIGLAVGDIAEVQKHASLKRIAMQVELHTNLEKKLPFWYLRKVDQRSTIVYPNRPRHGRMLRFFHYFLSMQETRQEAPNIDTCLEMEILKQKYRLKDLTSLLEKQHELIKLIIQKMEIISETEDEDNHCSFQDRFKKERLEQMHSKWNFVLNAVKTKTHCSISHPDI
Would you kindly list IC50 for each of these compounds?
Give the quantity in µM, number only.

Query: // Input: CCCCCCCCCn1nnc(-c2ccc(O)c(OC)c2)n1 . Output its IC50 only.
Result: 1.71

Query: Please report IC50 for the following compound: CCCCCC[C@H](C/C=C\CCCCCCCCn1nnc(-c2ccc(O)c(OC)c2)n1)OC(=O)Cc1ccccc1
Result: 2.9

Query: Give the measured IC50 for CCCCCCCC/C=C\CCCCCCCCn1nnc(-c2ccc(O)c(OC)c2)n1
Result: 1
